What GFP response vs DMSO was measured for each of the following?
# Experiment description: RPL19A-GFP modulators, yeast TOR pathway, confirmation, cell-based, S. cerevisiae, flow cytometry, cherry picks, mother/daughter gates (AID 2270)
# Setup conditions: S. cerevisiae RPL19A-GFP strain, 3 h, at 10 µM, stronger effect = lower value, 100 = same GFP as DMSO wells
Active and inactive are the calls of the source.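 How the source made its calls: active means GFP response below 50% of the DMSO control; inconclusive means fewer than 70 events counted for a yeast strain; inactive means the rest.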

*Q* Which GFP response vs DMSO is reported for this compound? CCOc1ccc2nc(SCC(=O)NCC3CCCO3)c(C#N)cc2c1 (stereo unspecified)
*A* 97.8% (inactive)

*Q* Recorded GFP response vs DMSO for `COc1ccc(/C=C/C(=O)c2ccc(OC)cc2O)cc1` , please?
*A* 99.9% (inactive)

*Q* Need GFP response vs DMSO of `COc1ccc(N2CCN(C(=O)c3ccc(Br)cc3)CC2)c([N+](=O)[O-])c1` , thanks.
*A* 114% (inactive)

*Q* Return reported GFP response vs DMSO; argument: Cc1ccc(N2C(=O)C3C4C=CC(CNC(=S)Nc5ccc(Cl)cc5)(O4)C3C2=O)cc1 (stereo unspecified)
*A* 102% (inactive)

*Q* Dear colleague, I am looking for the recorded GFP response vs DMSO of the following compound: `CCOc1cc(/C=C2\N=C(C)OC2=O)cc(Br)c1OCC(=O)OC`
*A* 98.2% (inactive)

*Q* For `Cc1cccc(N2C(=O)C(Cl)=C(Nc3c(C)n(C)n(-c4ccccc4)c3=O)C2=O)c1C` , what is its reported GFP response vs DMSO?
*A* 102% (inactive)

*Q* Entry CCOc1ccc(N2C(=O)CC(Sc3ncccn3)C2=O)cc1 (stereo unspecified) has what GFP response vs DMSO?
*A* 98.2% (inactive)

*Q* Given the entry `COc1ccc(Br)cc1/C=C/C(=O)c1ccc(NC(C)=O)cc1` , report its measured GFP response vs DMSO.
*A* 100% (inactive)

*Q* Any idea what its GFP response vs DMSO is? The compound is `O=[N+]([O-])c1ccc(S(=O)(=O)c2cccc(C(F)(F)F)c2)nc1`
*A* 81.9% (inactive)

*Q* What does the record list as GFP response vs DMSO for COc1ccc(OC)c(C2C(C(=O)Nc3nc4ccccc4s3)=C(C)NC3=C2C(=O)CCC3)c1 (stereo unspecified) ?
*A* 102% (inactive)

*Q* Please give the measured GFP response vs DMSO for this compound: `Cc1c(C)c2ccc(OCC(=O)NCCCn3ccnc3)cc2oc1=O`
*A* 97.8% (inactive)

*Q* Quick one: GFP response vs DMSO of `O=C(NCc1ccccn1)c1cc(-c2ccc(Cl)cc2)oc1C(F)(F)F` ?
*A* 99.5% (inactive)

*Q* Bench note: what GFP response vs DMSO did `Cc1occc1-c1nnc(-c2cc([N+](=O)[O-])cc([N+](=O)[O-])c2)o1` show?
*A* 88.1% (inactive)

*Q* Please give the measured GFP response vs DMSO for this compound: `O=C1Nc2ccc(Br)cc2/C1=C/C(=O)c1ccc2c(c1)OCO2`
*A* 101% (inactive)

*Q* Item under review: `Cc1ccc(C(=O)Oc2oc(-c3ccco3)nc2C=Nc2ccc(Cl)cc2)cc1` . Reported GFP response vs DMSO?
*A* 102% (inactive)

*Q* What value of measured GFP response vs DMSO is listed for `CCc1nnc(NC(=O)c2nc(S(=O)(=O)Cc3ccc(C)cc3)ncc2Cl)s1` ?
*A* 98.2% (inactive)

*Q* # lookup: GFP response vs DMSO of `CCOc1cc(/C=C2/N=C(c3ccc4c(c3)OCO4)OC2=O)ccc1OC(C)=O`
*A* 92% (inactive)

*Q* Entry `COc1cccc2cc(C(=O)N3CCN(C/C=C/c4ccccc4)CC3)c(=O)oc12` : reported GFP response vs DMSO = ?
*A* 98.6% (inactive)

*Q* What GFP response vs DMSO value was documented for this compound, `c1ccc(-c2n[nH]c3ccccc23)cc1` ?
*A* 98.4% (inactive)

*Q* Data request, read-out GFP response vs DMSO, for `CC(C)(C)NC(=O)CN(C(=O)CCC(=O)Nc1nccs1)c1ccc(F)cc1`
*A* 101% (inactive)

*Q* Form field: reported GFP response vs DMSO of `C=CCNC(=O)/C(C#N)=C/c1c(N(Cc2ccccc2)Cc2ccccc2)nc2ccccn2c1=O`
*A* 98.8% (inactive)

###

Kindly state GFP response vs DMSO for each of the entries shown.
# Experiment description: modulators of MEP2-GFP levels in yeast, primary screen, S. cerevisiae, multiplex flow cytometry (AID 1867);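 further: median GFP channel fluorescence of barcode-gated MEP2-GFP cells measured by flow cytometry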
# Setup conditions: S. cerevisiae MEP2-GFP strain, 3 h, at 10 µM, stronger effect = higher value, 100% means same as DMSO wells
Records with an inconclusive call do not appear.
Return type: number; implicit unit %.

*Q* Can you look up the measured GFP response vs DMSO of Cc1ccc2c(c1)c1c3n2CCCNC3CCC1 (stereo not drawn) for me?
*A* 106

*Q* Looking for the measured GFP response vs DMSO of Cn1c(=O)c2c(ncn2CC(O)CO)n(C)c1=O (stereo not drawn) , can you help?
*A* 99.9

*Q* Endpoint output: GFP response vs DMSO of `CCOC(=O)C(=O)Nc1ccc(Oc2ccccc2)cc1` . Value?
*A* 105

*Q* Could you share which GFP response vs DMSO value was measured for O=C(c1ccc(-c2ccccc2)c(F)c1)C1CCCN(C(=O)c2cncs2)C1 (stereo not drawn) ?
*A* 103

*Q* Fill in: GFP response vs DMSO of `CC(=O)Nc1nc(CCC(C)C)cc2c1c(=O)oc1ccccc12` is ___
*A* 98.3

*Q* GFP response vs DMSO for CC(C)C[C@H](NC(=O)[C@@H]1Cc2ccccc2CN1C(=O)OC(C)(C)C)C(=O)NCC1CCC(C(=O)O)CC1 (stereo partly drawn) ?
*A* 95.9

*Q* I would be grateful if you could share the reported GFP response vs DMSO for `CC(=O)Oc1ccc2occ(/C=N/c3cc(=O)[nH]c(=S)[nH]3)c(=O)c2c1` .
*A* 102

*Q* Endpoint output: GFP response vs DMSO of COC1(C)CC2C(CC1OC(=O)c1cc([N+](=O)[O-])cc([N+](=O)[O-])c1)C2(C)C (stereo not drawn) . Value?
*A* 99.9

*Q* Which GFP response vs DMSO value is on record for CC(=O)O[C@H]1C(=O)[C@@]2(C)[C@H]([C@H](OC(=O)c3ccccc3)[C@]3(O)C[C@H](OC(=O)[C@H](O)C(NC(=O)c4ccccc4)c4ccccc4)C(C)=C1C3(C)C)[C@]1(OC(C)=O)CO[C@@H]1C[C@@H]2O (stereo partly drawn) ?
*A* 99.9

*Q* Look at this compound and give its reported GFP response vs DMSO. `COc1ccc2c(c1)[nH]c1c(=O)n(Cc3ccccn3)cnc12`
*A* 97.7

*Q* Any idea what its GFP response vs DMSO is? The compound is `COC(=O)c1[nH]c2ccccc2c1NC(=O)CN1CCN(C/C=C/c2ccccc2)CC1`
*A* 106

*Q* Entry `CN1CCC(=C2c3ccccc3CC(=O)c3sccc32)CC1` : reported GFP response vs DMSO = ?
*A* 101

*Q* Consider the compound shown here: O=C1OC(=O)C2C1[C@@H]1CC[C@H]2O1 (stereo partly drawn) What is its recorded GFP response vs DMSO?
*A* 103

###

# Experiment description: RPL19A-GFP modulators, yeast TOR pathway, confirmation, cell-based, S. cerevisiae, flow cytometry, cherry picks, mother/daughter gates (AID 2270)
# Setup conditions: S. cerevisiae RPL19A-GFP strain, 3 h, at 10 µM, stronger effect = lower value, 100 = same GFP as DMSO wells
Value type: GFP response vs DMSO (%)
Express your answer in %, writing the number without its unit.

*Q* Field request: GFP response vs DMSO | item: CCCCOC(=O)C1CCC[C@@H](C)N1 (stereo partly specified)
*A* 101

*Q* Return reported GFP response vs DMSO; argument: `O=C1c2ccsc2SCCN1Cc1c(Cl)cccc1Cl`
*A* 102

*Q* Consider the molecule shown here: `O=C(c1cc(-c2cccc(Cl)c2)on1)N1CCc2ccccc2C1` What is its recorded GFP response vs DMSO?
*A* 99.2

*Q* Returns the measured GFP response vs DMSO for the input molecule. Input: `COc1ccc(/C=N/Nc2nc(-c3cccnc3)nc3ccccc23)cc1OC`
*A* 100

*Q* Name the recorded GFP response vs DMSO for `CCOc1ccccc1/C=C/C(=O)c1ccc(Cl)cc1` .
*A* 98.2

*Q* Item `Cc1ccc(S(=O)(=O)c2ncccc2[N+](=O)[O-])cc1` has what recorded GFP response vs DMSO?
*A* 92.2

All figures here come from PubChem BioAssay.
